assay: A549 cell viability effects, profiling panel, calcein-AM fluorescence, 48 h, basal (AID 1162); conditions: higher = more signal; also: test concentration not given here
Response key: condition met means z-score >= 0.06; condition not met means z-score < 0.06.

1. C=C(/C(=C/C[C@@H](OC(=O)c1ccncc1)c1cccc(OCCO)c1)c1cnc2ccccc2c1)C(C)C	condition met
2. CCCNC(=O)[C@@]1(Sc2ccc(C)cc2)CC(=O)N(C2CCCCC2)[C@@H]1c1ccc(CO)cc1I	condition met
3. COc1cccc(/C=C(\C#N)C(=O)Nc2c(C)n(C)n(-c3ccccc3)c2=O)c1	condition met
4. C=CCC(OC(C)=O)[C@@H]1[C@@H](N(Cc2ccc(-c3cccc(C(F)(F)F)c3)o2)C(=O)Cc2ccc(OC)cc2)c2cc(OCCCO)ccc2N1C(=O)Cc1ccc2ccccc2c1 (some centres undefined)	condition met
5. CC(C)C(=C=CC[C@@H](O)c1cccc(OCCO)c1)C[C@@H](O)COCc1ccccc1	condition met
6. COCCOC(=O)N1C(=O)[C@@]2(c3cc(C#CCC(C(=O)OC)C(=O)OC)ccc31)[C@H](C(=O)NC[C@H](O)c1ccccc1)[C@H]1C(=O)O[C@H](c3ccccc3)[C@H](c3ccccc3)N1[C@@H]2c1ccc(O)cc1	condition met
7. C=C(COC)/C(=C/C[C@H](OC(C)=O)c1cccc(OCCO)c1)c1cnc2ccccc2c1	condition met
8. COCC(=C=CC[C@H](O)c1cccc(OCCO)c1)C[C@H](O)COCc1ccccc1	condition met
9. COC(=O)C1=CC(CCCO)=CC(C)N(Cc2cccc(OC(F)(F)F)c2)C=C1C(=O)OC (centres undefined)	condition met
10. [N-]=[N+]=Nc1ccccc1C[C@]1(C(=O)NCc2ccccc2)COC(c2ccc(OCCCO)cc2)=N1	condition not met

Determine whether this molecule has z-score no lower than 0.06: C=CCN1C(=O)[C@@]2(O[C@@H](CCO)[C@H]([Si](C)(C)c3ccc(OC)cc3)[C@H]2C)c2cc(N3CCOC3=O)ccc21
condition not met

Now consider C=CCNC(=O)[C@H]1[C@@H]2C(=O)O[C@@H](c3ccccc3)[C@@H](c3ccccc3)N2[C@@H](c2ccc(OCCO)cc2)[C@]12C(=O)N(C(=O)OCCOC)c1ccc(C#Cc3ccc(OC)cc3)cc12 and answer again.
condition not met

Now consider [N-]=[N+]=NCc1ccccc1C[C@]1(C(=O)N2CCOCC2)COC(c2ccc(OCCCO)cc2)=N1 and answer again.
condition not met

Now consider CC(=O)NCCCC[C@@H]1NC(=O)[C@H]2C[C@@H](C(=O)NCCCCCNC(=O)CS)[C@@H](c3cccc(OCCO)c3)N2C1=O and answer again.
condition not met

Now consider COCCOC(=O)N1C(=O)[C@@]2(c3cc(C#CCC(C(=O)OC)C(=O)OC)ccc31)[C@H](C(=O)NC[C@H](O)c1ccccc1)[C@H]1C(=O)O[C@H](c3ccccc3)[C@H](c3ccccc3)N1[C@@H]2c1ccc(OCCO)cc1 and answer again.
condition not met

Now consider CC=CC(O)C1C=CC2C(=O)NC(=O)C2N1Nc1ccccn1 (centres undefined) and answer again.
condition not met

Now consider O=C1O[C@H](c2ccccc2)[C@H](c2ccccc2)N2[C@H]1[C@@H](C(=O)N1CCCCCCC1)[C@]1(C(=O)Nc3ccc(C#CC4(O)CCCCCC4)cc31)[C@H]2c1ccccc1OCCO and answer again.
condition not met

Now consider O=C1OCCC/C=C\[C@H]2OC34C=CCN(c5ccc6ccccc6c5)C(=O)[C@H]3N(CCCO)C(=O)[C@@H]4C12 (some centres undefined) and answer again.
condition not met

Now consider C=C(C(=O)CC[C@@H](OC(=O)c1ccccc1-c1ccccc1C(=O)O)c1ccccc1OCCO)C(C)C and answer again.
condition not met

Now consider O=C1[C@@H]2[C@@H](CC(COc3ccccc3)=C3[C@@H](CCc4ccccc4)OB(O)C[C@@H]32)C(=O)N1Cc1ccccc1 and answer again.
condition not met

Now consider [N-]=[N+]=Nc1ccccc1C[C@@]1(C(=O)O)N=C(c2ccc(OCCCO)cc2)O[C@@H]1c1ccccc1N=[N+]=[N-] and answer again.
condition not met

Now consider O=C(O)[C@@H]1C[C@@H]2C(=O)N3CCC[C@H]3C(=O)N2[C@@H]1c1cccc(OCCO)c1 and answer again.
condition met

---

assay: PSAC antagonists in infected red cells, primary screen, cell-based, P. falciparum Indochina, OD700, 1 h (AID 1154); conditions: P. falciparum Indochina infected RBC osmotic lysis, higher = more signal, called active from +8 up or from −8 down
READOUT TYPE: z-score
The response must contain the number and no unit.

1. NCCCCCNC(=O)[C@H]1C[C@H]2C(=O)N[C@@H](Cc3ccccc3)C(=O)N2[C@H]1c1ccc(O)cc1	3.38

Fill in: z-score of CC(C)c1ccc(NN2C(C(O)Cc3ccccc3)C=CC3C(=O)N(c4ccccc4)C(=O)C32)cc1 (centres undefined) is ___
1.93

Now consider Cc1ccc([C@H]2C(C(=O)O)=C[C@@H](C(C)(C)C)N2S(=O)(=O)c2ccc(C)cc2)cc1 and answer again.
0.212

Now consider [N-]=[N+]=NCc1ccccc1C[C@]1(C(=O)N2CCOCC2)COC(c2ccc(OCCCO)cc2)=N1 and answer again.
26.6

---

Reported z-score is given for each of the following molecules.
test: HepG2 liver cancer cell viability effects, profiling panel, resazurin fluorescence, 24 h, PK04 Diversity Set (AID 1172); conditions: higher = more signal; also: test concentration not given here
The response must contain the number and no unit.

1) COC(=O)[C@@]1(Cc2ccc(F)cc2)[C@H]2c3cc(C(=O)N(C)C)n(Cc4c(CO)[nH]cc(C)c4=O)c3C[C@H]2CN1C(=O)c1ccccc1	-1.03
2) [N-]=[N+]=Nc1ccccc1C[C@]1(C(=O)O)N=C(c2ccc(OCCCO)cc2)O[C@H]1c1ccccc1	-0.0033
3) COc1ccc([Si](C)(C)[C@H]2[C@H](CCO)O[C@@]3(C(=O)N(Cc4ccccc4)c4ccc(N5CCOC5=O)cc43)[C@@H]2C)cc1	-1.27

Fill in: z-score of C=CCC(OC(C)=O)[C@@H]1[C@@H](N(Cc2cccc3ccccc23)C(=O)Cc2ccc(F)cc2)c2cc(OCCCO)ccc2N1C(=O)c1ccc(-c2ccccc2)cc1 (some centres undefined) is ___
-0.271

Now consider COCCCNC(=O)[C@@]1(Sc2ccc(C)cc2)CC(=O)N(C(C)C)[C@@H]1c1ccc(CO)cc1I and answer again.
-0.312

Now consider COc1ccc(C#Cc2ccc3c(c2)[C@]2(C(=O)N3)[C@H](c3ccc(OCCO)cc3)N3[C@H](c4ccccc4)[C@H](c4ccccc4)OC(=O)[C@H]3[C@@H]2C(=O)N2CCc3cc(OC)c(OC)cc3C2)cc1 and answer again.
0.36

Now consider O=C(CS)NCCCCCNC(=O)[C@@H]1C[C@@H]2C(=O)N[C@@H](Cc3ccccc3)C(=O)N2[C@@H]1c1cccc(OCCO)c1 and answer again.
-0.528

Now consider CO[C@H]1O[C@H](CO)[C@@H](OC(=O)c2ccc(Br)cc2)[C@@H]2OC(=O)[C@H](Cc3ccccc3)C/C=C/C[C@@H](Cc3ccccc3)C(=O)O[C@@H]12 and answer again.
0.722

Now consider C[C@]1(C(=O)NCC(F)(F)F)c2ccccc2C(=O)N(Cc2ccccc2)[C@H]1c1ccc(CO)cc1 and answer again.
-0.398

Now consider Cc1ccccc1C(O)C1C=CC2C(=O)N(c3ccccc3)C(=O)C2N1Nc1ccc([N+](=O)[O-])cc1 (centres undefined) and answer again.
-0.368

Now consider CCOC(=O)C[C@H]1[C@H](OC(=O)c2cc3ccccc3oc2=O)[C@@H](NC(=O)c2ccc3ccccc3c2)c2cc(OCCCO)ccc2N1C(=O)Cc1ccc(OC)cc1 and answer again.
0.98

Now consider CO[C@H]1O[C@H](CO)[C@@H](OC(=O)Nc2cccc(F)c2)[C@H](OC(=O)Nc2ccccc2-c2ccccc2)[C@H]1OC(=O)Nc1ccccc1-c1ccccc1 and answer again.
-4.61

Now consider COc1ccc([Si](C)(C)[C@@H]2[C@@H](CC(=O)N3Cc4ccccc4C[C@H]3CO)O[C@]3(C(=O)N(c4ccccc4)c4ccccc43)[C@H]2C)cc1 and answer again.
-1.05

Now consider COCCOC(=O)N1C(=O)[C@@]2(c3ccccc31)[C@H](c1ccccc1OCCO)N1[C@H](c3ccccc3)[C@H](c3ccccc3)OC(=O)[C@H]1[C@@H]2C(N)=O and answer again.
-0.704

Now consider C=C(CCCC)C(=O)CC[C@H](OC(=O)c1ccccc1-c1ccccc1C(=O)O)c1ccccc1OCCO and answer again.
-1.08

Now consider [N-]=[N+]=NC[C@H](Cc1ccccc1)NC(=O)c1ccccc1 and answer again.
0.198

Now consider Cc1nc2cc(Br)ccc2c(=O)n1Cc1cccc(O)c1 and answer again.
0.674

Now consider [N-]=[N+]=Nc1ccccc1C[C@]1(C(=O)O)N=C(c2ccc(OCCCO)cc2)O[C@H]1c1ccccc1N=[N+]=[N-] and answer again.
0.675

Now consider COC(=O)[C@@]1(Cc2ccc(OC)cc2)[C@H]2c3cc(C(=O)N4CCCC4)n(Cc4cc(C)n(C)n4)c3C[C@H]2CN1C(=O)c1ccccc1 and answer again.
-0.646

Now consider O=C1OCCC/C=C\[C@H]2OC34C=CCN(c5ccc6ccccc6c5)C(=O)[C@H]3N(CCCO)C(=O)[C@@H]4C12 (some centres undefined) and answer again.
-0.408
